growth at 10 µM values by entry
System: 786-0
METHOD NOTES: Growth inhibition of human 786-0 cells assessed as cell growth at 10 uM after 48 hrs by sulforhodamine B assay
Format: functional
COND: 786-0, 48 h, read-out: Activity
Quote the value and follow it with the unit of measurement.

Known growth at 10 µM results, listed for orientation:
# CHEMICAL SMILES, growth at 10 µM
records = [
    ("CC(C)=CCC/C(C)=C/CC/C(C)=C/CC[C@]1(C)CCc2c3c(c(C)c(C)c2O1)OCN(CCCCCCCCCCO)C3", "99.2%"),
    ("CC(C)=CCC/C(C)=C/CC/C(C)=C/CC[C@]1(C)CCc2c3c(c(C)c(C)c2O1)OCN(CCCCO)C3", "72.8%"),
    ("CC(C)=CCC/C(C)=C/CC/C(C)=C/CC[C@]1(C)CCc2c3c(c(C)c(C)c2O1)OCN(CCCCCO)C3", "90.2%"),
    ("CC(C)=CCC/C(C)=C/CC/C(C)=C/CC[C@]1(C)CCc2c3c(cc(C)c2O1)OCN(CCCCCCCCCCO)C3", "85.3%"),
    ("CC(C)=CCC/C(C)=C/CC/C(C)=C/CC[C@]1(C)CCc2c3c(c(C)c(C)c2O1)OCN(CCc1ccc(O)cc1)C3", "77.3%"),
]

Please find the next molecule below.
## Task // lookup growth at 10 µM for "CC(C)=CCC/C(C)=C/CC/C(C)=C/CC[C@]1(C)CCc2c3c(cc(C)c2O1)OCN(CCCCCCO)C3"
## Result -98%

###

Test system: NCI-H522
METHOD NOTES: Growth inhibition of human NCI-H522 cells assessed as cell growth at 10 uM after 48 hrs by sulforhodamine B assay
Format: functional
COND: NCI-H522, 48 h, read-out: Activity
growth at 10 µM values by entry
Give just the number in %; leave the unit off.

# CHEMICAL SMILES, SYSTEM, REPORTED VALUE
records = [
    ("CC(C)=CCC/C(C)=C/CC/C(C)=C/CC[C@]1(C)CCc2cc(O)c(C)c(C)c2O1", "NCI-H522", 68.8),
    ("CC(C)=CCC/C(C)=C/CC/C(C)=C/CC[C@]1(C)CCc2c3c(c(C)c(C)c2O1)OCN(CCc1ccc(O)cc1)C3", "NCI-H522", 90),
    ("CC(C)=CCC/C(C)=C/CC/C(C)=C/CC[C@]1(C)CCc2c3c(cc(C)c2O1)OCN(CCCCCCCCO)C3", "NCI-H522", -81.6),
]

## Task // lookup growth at 10 µM for "CC(C)=CCC/C(C)=C/CC/C(C)=C/CC[C@]1(C)CCc2c3c(c(C)c(C)c2O1)OCN(CCCCCO)C3"
## Result 84.8

###

Tested on: UACC-62
METHOD NOTES: Growth inhibition of human UACC62 cells assessed as cell growth at 10 uM after 48 hrs by sulforhodamine B assay
Format: functional
COND: UACC-62, 48 h, read-out: Activity
growth at 10 µM values by entry
Give just the number in %; leave the unit off.

Known growth at 10 µM results, listed for orientation:
# CHEMICAL SMILES, SYSTEM, READING UNIT, growth at 10 µM
data = [
    ("CC(C)=CCC/C(C)=C/CC/C(C)=C/CC[C@]1(C)CCc2c3c(c(C)c(C)c2O1)OCN(CCCCCCO)C3", "UACC-62", "%", 86.7),
    ("CC(C)=CCC/C(C)=C/CC/C(C)=C/CC[C@]1(C)CCc2c3c(cc(C)c2O1)OCN(CCCCCO)C3", "UACC-62", "%", 93.2),
]

## Task // lookup growth at 10 µM for "CC(C)=CCC/C(C)=C/CC/C(C)=C/CC[C@]1(C)CCc2c3c(c(C)c(C)c2O1)OCN(CCc1ccc(O)cc1)C3"
## Result 104

## Task Likewise for "COc1ccc(CCN2COc3c(C)c(C)c4c(c3C2)CC[C@@](C)(CC/C=C(\C)CC/C=C(\C)CCC=C(C)C)O4)cc1OC" ?
## Result 96.5

Reference for the values: ChEMBL document CHEMBL2380254
